Record set: pIC50 | Poly [ADP-ribose] polymerase 1 (Homo sapiens, UniProt P09874) | literature, multiple sources.
pIC50: −log10 of the molar value.
READOUT NAME: pIC50

[[record]]
structure_as_smiles = "CNC(=O)c1ccc(N2CCN(Cc3ccc4nc(C)c(=O)[nH]c4c3C)CC2)cn1"
obs_value = 7.96

[[record]]
structure_as_smiles = "CCc1nc2ccc(CN3CCN(c4ccc(C(=O)NC)nc4)CC3)c(F)c2[nH]c1=O"
obs_value = 7.82

[[record]]
structure_as_smiles = "CCc1cc2nnc(CN3CCN(c4ccc(C(=O)NC)nc4)[C@@H]4CC[C@@H]43)cc2[nH]c1=O"
obs_value = 9.10

[[record]]
structure_as_smiles = "CCc1cc2ncc(C=C3CCN(c4ccc(C(=O)Nc5cnn(C)c5)nc4)CC3)cc2[nH]c1=O"
obs_value = 9.72

[[record]]
structure_as_smiles = "CCc1nc2ccc(CN3CCN(c4ccc(C(=O)NC)nc4F)CC3)c(Cl)c2[nH]c1=O"
obs_value = 8.40


* * *

pIC50: −log10 of the molar value.
Record set: pIC50 | UniProtKB P09874 | literature, multiple sources.
I would appreciate it if you labelled entries satisfied when pIC50 is 8 or higher, otherwise not satisfied.

[[record]]
structure_as_smiles = "CN(C)C(=O)c1cc2cnc(NCCCCCCNC(=O)c3cc(Cc4n[nH]c(=O)c5ccccc45)ccc3F)nc2n1C1CCCC1"
subject_of_test = "UniProtKB P09874"
group_label = "satisfied"

[[record]]
structure_as_smiles = "CNC(=O)c1ccc(N2CCN(Cc3cc4c5c(c3)c(F)nn5[C@H](C)C(=O)N4)CC2)c(F)n1"
subject_of_test = "UniProtKB P09874"
group_label = "satisfied"

[[record]]
structure_as_smiles = "CCc1nc2ccc(CN3CCN(c4ccc(C(=O)NC)nc4F)CC3)c(C)c2[nH]c1=O"
subject_of_test = "UniProtKB P09874"
group_label = "satisfied"

[[record]]
structure_as_smiles = "CNC(=O)c1ccc(N2CCN(Cc3ccc4nc(C)c(=O)[nH]c4c3C)CC2)c(C(F)F)n1"
subject_of_test = "UniProtKB P09874"
group_label = "not satisfied"

[[record]]
structure_as_smiles = "Cc1nc2c(F)cc(-c3nc(Nc4ccc(N5CCN(C(=O)c6cc(Cc7n[nH]c(=O)c8ccccc78)ccc6F)CC5)cc4)ncc3F)cc2n1C(C)C"
subject_of_test = "UniProtKB P09874"
group_label = "satisfied"

[[record]]
structure_as_smiles = "CCc1nc2ccc(CN3CCN(c4ccc(C(=O)NC)nc4C)CC3)c(F)c2[nH]c1=O"
subject_of_test = "UniProtKB P09874"
group_label = "satisfied"

[[record]]
structure_as_smiles = "Cc1nc2c(F)cc(-c3nc(Nc4ccc(Cc5n[nH]c(=O)c6ccccc56)cc4)ncc3F)cc2n1C(C)C"
subject_of_test = "UniProtKB P09874"
group_label = "not satisfied"

[[record]]
structure_as_smiles = "CNC(=O)c1ccc(N2CCN(Cc3ccc4nc(C(F)(F)F)c(=O)[nH]c4c3F)CC2)c(C)n1"
subject_of_test = "UniProtKB P09874"
group_label = "not satisfied"

[[record]]
structure_as_smiles = "CNC(=O)c1ccc(N2CCN(Cc3cc4c5c(c(C)c(=O)[nH]c5c3)CCC4)CC2)c(F)n1"
subject_of_test = "UniProtKB P09874"
group_label = "satisfied"

[[record]]
structure_as_smiles = "CCc1nc2ncc(CN3CCN(c4ccc(C(=O)NC)nc4)[C@H]4CC[C@H]43)cc2[nH]c1=O"
subject_of_test = "UniProtKB P09874"
group_label = "satisfied"

[[record]]
structure_as_smiles = "Cc1nc2c(F)cc(-c3nc(Nc4ccc(C(=O)N5CCN(c6cccc(NC(=O)c7cc(Cc8n[nH]c(=O)c9ccccc89)ccc7F)c6)CC5)cc4)ncc3F)cc2n1C(C)C"
subject_of_test = "UniProtKB P09874"
group_label = "not satisfied"

[[record]]
structure_as_smiles = "CCc1cc2ncc(CN3CC(Nc4ccc(C(=O)NC)nc4)C3)cc2[nH]c1=O"
subject_of_test = "UniProtKB P09874"
group_label = "satisfied"

